# credit: patent US20240150365A1

This listing pairs molecules with measured pIC50.
Protein target, amino acids: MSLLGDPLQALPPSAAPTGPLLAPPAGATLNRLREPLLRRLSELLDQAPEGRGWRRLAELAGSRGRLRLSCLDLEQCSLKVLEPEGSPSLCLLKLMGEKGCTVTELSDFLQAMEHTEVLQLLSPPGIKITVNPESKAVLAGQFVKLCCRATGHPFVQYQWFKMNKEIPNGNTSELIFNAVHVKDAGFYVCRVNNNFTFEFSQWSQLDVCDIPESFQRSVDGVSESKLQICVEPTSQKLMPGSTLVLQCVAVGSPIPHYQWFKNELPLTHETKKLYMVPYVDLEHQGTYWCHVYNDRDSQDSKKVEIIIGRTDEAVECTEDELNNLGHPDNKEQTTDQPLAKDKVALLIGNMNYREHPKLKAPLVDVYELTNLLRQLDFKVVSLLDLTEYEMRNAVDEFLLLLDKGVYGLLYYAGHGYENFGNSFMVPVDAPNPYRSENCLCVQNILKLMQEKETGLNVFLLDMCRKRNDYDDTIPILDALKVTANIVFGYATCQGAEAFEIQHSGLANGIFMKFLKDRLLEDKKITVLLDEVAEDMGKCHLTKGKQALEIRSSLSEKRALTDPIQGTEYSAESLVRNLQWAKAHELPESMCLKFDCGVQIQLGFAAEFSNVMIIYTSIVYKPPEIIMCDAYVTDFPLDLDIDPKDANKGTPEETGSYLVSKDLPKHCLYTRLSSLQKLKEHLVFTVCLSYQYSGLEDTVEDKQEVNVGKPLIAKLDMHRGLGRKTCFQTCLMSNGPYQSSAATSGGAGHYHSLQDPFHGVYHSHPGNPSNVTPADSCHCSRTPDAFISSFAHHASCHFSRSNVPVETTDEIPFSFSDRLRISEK
pIC50: −log10 of the molar value.

Exercise: For the molecule CCc1ccc2cnn(C)c2c1N(C)S(=O)(=O)c1ccc(-n2cc(C(F)(F)F)cn2)nc1 [Example I-6] , what pIC50 is on record?
Solution: > 6.40

Exercise: Same read-out for Cn1ncc2cccc(NS(=O)(=O)c3ccc(-n4cc(C5(F)CC5)cn4)nc3)c21 [Example I-55] ?
Solution: < 5.60

Exercise: Same read-out for CCc1ccc2cnn(C)c2c1NS(=O)(=O)c1ccc(-n2cc(C(F)(F)F)cn2)nn1 [Example I-9] ?
Solution: < 5.60

Exercise: Same read-out for Cc1ncc(-c2ccc(S(=O)(=O)Nc3cccc4cnn(C)c34)cn2)n1C(F)(F)F [Example I-271] ?
Solution: < 5.60
